What IC50 was measured for each of the following?
- TARGET OF ASSAY: ligand binding domain of human RORγ (A262-S507) (Homo sapiens)
- Construct: made in house; host or cells: E. coli
- Sequence (P51449 262-507): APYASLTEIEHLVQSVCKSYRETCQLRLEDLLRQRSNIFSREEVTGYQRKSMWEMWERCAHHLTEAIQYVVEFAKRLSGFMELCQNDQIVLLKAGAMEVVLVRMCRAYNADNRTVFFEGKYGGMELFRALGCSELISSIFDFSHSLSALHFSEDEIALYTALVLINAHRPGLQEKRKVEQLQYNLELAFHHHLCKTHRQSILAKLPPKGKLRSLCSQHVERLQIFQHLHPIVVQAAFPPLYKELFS
- METHOD: General RORγ SPA binding assay (competition with [3H]25-hydroxycholesterol)
- TEST SETTINGS: RORγ SPA binding assay, inhibition of [3H]25-hydroxycholesterol binding; read-out: IC50
One number for each entry, in nM.

{"MOLECULE": "Cc1ncc(C(=O)NCc2ccnc(C#N)c2)c(C2CCN(C(=O)Cc3c(F)cccc3F)CC2)n1", "IC50 [nM]": 19.2}
{"MOLECULE": "CC(O)(COc1cccc(C(F)(F)F)n1)c1cnc(N)nc1C1CCN(C(=O)Nc2c(F)cccc2F)CC1 (stereo not drawn)", "IC50 [nM]": 3.6}

IC50 reported for this molecule "COc1ccccc1OC(=O)N1CCC(c2nc(N)nc(C)c2-c2nnc(-c3ccnc(C(F)(F)F)n3)o2)CC1" : 23.6
